assay: Toxicity liver stage against HepG2, at 10uM; format: cell-based; set-up: test concentration 10 uM, cell line HepG2-A16-CD81EGFP; conditions: human, HepG2-A16-CD81EGFP cells; read-out: INHIBITION
Measurement Label: cytotoxicity at 10 µM (%)
Just the number in %, nothing appended.

In the examples that follow, each entry is paired with its recorded cytotoxicity at 10 µM.
[[record]]
compound = "COCc1ncc(CN2CC[C@@](O)(COC)C(C)(C)C2)cn1"
reported_value = -2.79

[[record]]
compound = "CC(C)c1sc(Br)nc1C(=O)NCc1cccnc1"
reported_value = 3.06


Dear colleague, please send me the reported cytotoxicity at 10 µM for CCOC1COC2(CCN(CC3CC3)CC2)C1 (stereo unspecified) when you can.
-106

Provide measured cytotoxicity at 10 µM value, entry: Cc1ccc(Cl)c(CN2CCN(C)C(C(=O)O)C2)c1F (stereo unspecified)
-0.0679

Given the compound CC(NC(=O)Cn1ccc(=O)n(C)c1=O)c1ccccc1F (stereo unspecified) , write its reported cytotoxicity at 10 µM.
-10.6

Values were extracted from ChEMBL document CHEMBL4513216.
